Recorded measurements of koff, one per entry
Target: ClpC1 NTD protein (M. tuberculosis) (Mycobacterium tuberculosis)
Sequence (P9WPC9 1-156, looked up, natural form): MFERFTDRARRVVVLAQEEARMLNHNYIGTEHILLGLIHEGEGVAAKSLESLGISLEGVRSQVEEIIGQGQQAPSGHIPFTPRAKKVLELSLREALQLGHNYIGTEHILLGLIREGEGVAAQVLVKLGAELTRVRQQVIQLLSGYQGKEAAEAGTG
Test: biochemical
Assay type: binding
Conditions: SPR dissociation rate constant; read-out: koff ClpC1-NTD Mean ± SD
recorded endpoint: koff

compound	assay value
CO[C@H](c1ccccc1)[C@@H]1NC(=O)[C@H](C)NC(=O)[C@H](C[C@@H](C)CO)N(C)C(=O)[C@H](Cc2cn(Cc3cn(CCOCCn4cc(Cn5cc(C[C@@H]6NC(=O)[C@H](C(C)C)NC(=O)[C@H](CC(C)C)N(C)C(=O)[C@H](C(C)C)NC(=O)[C@H]([C@H](OC)c7ccccc7)NC(=O)[C@H](C)NC(=O)[C@H](C[C@@H](C)CO)N(C)C6=O)c6ccccc65)nn4)nn3)c3ccccc23)NC(=O)[C@H](C(C)C)NC(=O)[C@H](CC(C)C)N(C)C(=O)[C@H](C(C)C)NC1=O [Compound 6]	0.001 s⁻¹
CO[C@H](c1ccccc1)[C@@H]1NC(=O)[C@H](C)NC(=O)[C@H](C[C@@H](C)CO)N(C)C(=O)[C@H](Cc2cn(Cc3cn(CCOCCOCCOCCn4cc(Cn5cc(C[C@@H]6NC(=O)[C@H](C(C)C)NC(=O)[C@H](CC(C)C)N(C)C(=O)[C@H](C(C)C)NC(=O)[C@H]([C@H](OC)c7ccccc7)NC(=O)[C@H](C)NC(=O)[C@H](C[C@@H](C)CO)N(C)C6=O)c6ccccc65)nn4)nn3)c3ccccc23)NC(=O)[C@H](C(C)C)NC(=O)[C@H](CC(C)C)N(C)C(=O)[C@H](C(C)C)NC1=O [Compound 7]	0.001 s⁻¹

---

Test: in vitro
Settings: human, Caco-2, CACO permeability PEBA
*1 amine or outer side, *2 acyl side, *3 side chain or, on linkers, in order; H or OH if unused. Where a SMILES comes first, the peptide text is derived from it. [ ]: non-standard residue; d: D form. X2 = C#CCn1cc(C[C@@H](C(=O)[*:2])N(C)[*:1])c2ccccc21; X4 = C=CCO[C@H](c1ccccc1)[C@H](N[*:1])C(=O)[*:2]; NMeLeu(5-OH,4R) = CN[C@@H](C[C@@H](C)CO)C(=O)O; Phe(βR-OMe) = CO[C@H](c1ccccc1)[C@H](N)C(=O)O; Trp(1-Me) = Cn1cc(C[C@H](N)C(=O)O)c2ccccc21; NMeL = CN[C@@H](CC(C)C)C(=O)O
Recorded measurements of Papp B→A, one per entry
recorded endpoint: Papp B→A (×10⁻⁶ cm/s)

molecule	assay value
CO[C@H](c1ccccc1)[C@@H]1NC(=O)[C@H](C)NC(=O)[C@H](C[C@@H](C)CO)N(C)C(=O)[C@H](Cc2cn(C)c3ccccc23)NC(=O)[C@H](Cc2cn(CCOCCOCCn3cc(C[C@@H]4NC(=O)[C@H](CC(C)C)N(C)C(=O)[C@H](C(C)C)NC(=O)[C@H]([C@H](OC)c5ccccc5)NC(=O)[C@H](C)NC(=O)[C@H](C[C@@H](C)CO)N(C)C(=O)[C@H](Cc5cn(C)c6ccccc56)NC4=O)nn3)nn2)NC(=O)[C@H](CC(C)C)N(C)C(=O)[C@H](C(C)C)NC1=O [Compound 11]	0.36
C#CCn1cc(C[C@H]2C(=O)N(C)[C@@H](C[C@@H](C)CO)C(=O)N[C@@H](C)C(=O)N[C@@H]([C@H](OC)c3ccccc3)C(=O)N[C@@H](C(C)C)C(=O)N(C)[C@@H](CC(C)C)C(=O)N[C@@H](C(C)C)C(=O)N2C)c2ccccc21 [Compound 26] (cyclo(A[Phe(βR-OMe)]V[NMeL]V[X2][NMeLeu(5-OH,4R)]))	49
C=CCO[C@H](c1ccccc1)[C@@H]1NC(=O)[C@H](C)NC(=O)[C@H](C[C@@H](C)CO)N(C)C(=O)[C@H](Cc2cn(C)c3ccccc23)NC(=O)[C@H](C(C)C)NC(=O)[C@H](CC(C)C)N(C)C(=O)[C@H](C(C)C)NC1=O [Compound 14] (cyclo(A[X4]V[NMeL]V[Trp(1-Me)][NMeLeu(5-OH,4R)]))	30

Provenance of the data: paper PMC10914731
